The origin of these recorded values is ChEMBL document CHEMBL4680117.

tested on: H9c2; assay: Cardioprotective activity against rat H9c2 cells assessed as inhibition of doxorubicin-induced ROS production at 0.3 nM preincubated for 14 hrs followed by loading with DCFDA dye for 45 mins and later exposed to doxorubicin for 3 hrs by DCF-DA probe based fluorescence assay (reference value: 0%); format: functional; settings: H9c2, 17.75 h, time 1065 min
// 0 (no) strictly below 10% in inhibition at 0.0003 µM; 1 (yes) otherwise

Hello, I need to know if O=C1Nc2ccccc2[C@]12CCNC2c1ccccc1 (stereo not given in full) has measured inhibition at 0.0003 µM not below 10%. Thanks!
1 (yes)

Identify whether the reported inhibition at 0.0003 µM of the following molecule is 10% or greater: "COc1cc(OC)c2c(c1)O[C@@]1(c3ccc(Br)cc3)[C@H](c3ccccc3)C[C@@H](O)[C@@]21O"
0 (no)

Please indicate if the recorded inhibition at 0.0003 µM for "CC(C)N1CC[C@@]2(C(=O)Nc3ccccc32)[C@@H]1c1ccccc1" meets or exceeds 10%.
1 (yes)

Confirm if inhibition at 0.0003 µM reported for the molecule "CCCN1CC[C@@]2(C(=O)Nc3ccccc32)[C@@H]1c1ccccc1" is 10% or above.
0 (no)

# bool: inhibition at 0.0003 µM of "CCN1CC[C@@]2(C(=O)Nc3ccccc32)[C@@H]1c1ccccc1" >= 10%
0 (no)
